Test system: OVCAR-4
protocol.notes: NCI tumour cell line growth inhibition, 48 h
Activity calls are given as the source filed them. Rule as the data show it: active = GI50 up to about 1.1 µM and inactive = higher. Starred links: 1 amine or outer side, 2 acyl side, 3 side chain; linkers in the order of their positions; H or OH if unused. Positions of bridges follow the written chain, without caps; N, C: chain ends. Non-standard residues stand in square brackets, D forms with d. Residues, ends and D or L forms follow the SMILES beside them. Chains are numbered I, II in the order given. Actinocin(1to9) = Cc1c2oc3c(C)ccc(C(=O)[*:2])c3nc-2c(C(=O)[*:1])c(N)c1=O; NMeV = CN[CH](C(=O)O)C(C)C; Sar = CNCC(=O)O
# reported GI50; entries follow
reported.metric: GI50

{"compound": "CCN(CC)C(=O)Cc1c(C(=O)N(CC)CC)c(=O)nc2sccn12", "result": "> 100 µM (inactive)"}
{"compound": "CCC(C)C1NC(=O)C(NC(=O)c2c3nc4c(C(=O)NC5C(=O)NC(C(C)CC)C(=O)N6CCCC6C(=O)N(C)CC(=O)N(C)C(C(C)C)C(=O)OC5C)ccc(C)c4oc-3c(C)c(=O)c2N)C(C)OC(=O)C(C(C)C)N(C)C(=O)CN(C)C(=O)C2CCCN2C1=O (configuration not stated) (I: TIP[Sar][NMeV] / II: TIP[Sar][NMeV]; ester I:1-I:C, II:1-II:C; linker I:N-II:N via Actinocin(1to9); configuration not given here)", "result": "0.00625 µM (active)"}
{"compound": "CC1(c2ccccc2)CC(c2cccc([N+](=O)[O-])c2)=NO1 (configuration not stated)", "result": "> 100 µM (inactive)"}
{"compound": "O=S(=O)(CC#CCS(=O)(=O)c1ccccc1)c1ccccc1", "result": "1.84 µM (inactive)"}
{"compound": "C[C@]12CCC3[C@@H](CC[C@@H]4c5nonc5CC[C@]34C)C1C/C(=N/O)C2=O (some centres not stated)", "result": "76 µM (inactive)"}
{"compound": "Cc1cc2c(cc1C)[n+]([O-])c(C(=O)CC(=O)C(=O)Nc1ccccc1C)c(C)[n+]2[O-]", "result": "> 100 µM (inactive)"}
{"compound": "O=C1C(Cl)=C(Nc2ccc(S(=O)(=O)Nc3ccccn3)cc2)C(=O)c2ccccc21", "result": "17.3 µM (inactive)"}

###

# reported GI50; entries follow
Test system: HT-29
protocol.notes: NCI tumour cell line growth inhibition, 48 h
Calls of active or inactive are those of the source. Cut-off read from the data, not from the text of the source: active = GI50 up to about 1.1 µM and inactive = higher.

{"compound": "Cn1c2c(c3ccccc31)CCN(CCN1CCN(c3cccc(Cl)c3)CC1)C2=O", "target.or.test.system": "HT-29", "GI50": "18.2 µM (inactive)"}
{"compound": "CC(/C=C/c1ncccc1OCCCCCC(=O)O)=N\\NC1=NCCN1", "target.or.test.system": "HT-29", "GI50": "> 100 µM (inactive)"}
{"compound": "NCCCCNCCCNC(=O)c1csc(-c2nc(CCN)sc2Cl)n1", "target.or.test.system": "HT-29", "GI50": "> 100 µM (inactive)"}
{"compound": "c1ccc2c(NCCCCCCNc3cccc4ccccc34)cccc2c1", "target.or.test.system": "HT-29", "GI50": "> 100 µM (inactive)"}
{"compound": "N#C/C(N)=C(C#N)/N=C/N", "target.or.test.system": "HT-29", "GI50": "> 100 µM (inactive)"}
{"compound": "Cc1cc(C)nc(NS(=O)(=O)c2ccc(NC(=O)c3ccc4nc5ccccc5c(Nc5ccc(S(=O)(=O)N=C(N)N)cc5)c4c3)cc2)n1", "target.or.test.system": "HT-29", "GI50": "> 100 µM (inactive)"}
{"compound": "Cc1c(O)c(=O)ccn1C1OC(CO)C(O)C1O (stereo not given)", "target.or.test.system": "HT-29", "GI50": "> 100 µM (inactive)"}
{"compound": "O[C@@H]1C[C@H]2N3CC[C@@]2(c2cc4c(cc2C3)OCO4)[C@H]2O[C@@H]12", "target.or.test.system": "HT-29", "GI50": "> 100 µM (inactive)"}
{"compound": "CC(C)(C)OC(=O)N1CCC[C@H]1CSC[C@@H]1CCCN1C(=O)OC(C)(C)C", "target.or.test.system": "HT-29", "GI50": "17.8 µM (inactive)"}
{"compound": "C(=C\\c1ccccc1)/C=N/c1ccc2c(c1)Cc1ccccc1-2", "target.or.test.system": "HT-29", "GI50": "> 100 µM (inactive)"}

###

System: SK-MEL-2
protocol.notes: NCI tumour cell line growth inhibition, 48 h
Active and inactive are the calls of the source. No stated cut-off is given here; in the data, active = GI50 up to about 1.1 µM and inactive = higher.
Outcomes: active, inactive

{"compound": "S=C1NNC(=S)NN1", "classification": "active"}
{"compound": "O=S1(=O)NN=C(NCc2ccc(Cl)cc2)c2ccccc21", "classification": "inactive"}
{"compound": "CCOC(=O)NNC1(SC)NC(=O)c2c(cc(Cl)oc2=O)O1 (stereo not given)", "classification": "inactive"}
{"compound": "CC(C)(C)OC(=O)NCCc1cccc2c1oc1c(CCC(=O)O)cccc12", "classification": "inactive"}
{"compound": "C=C1CCC2[C@@H](CCC3[C@]2(C)CCC[C@]3(C)C(=O)OC)C1CC=O (stereo not given in full)", "classification": "inactive"}
{"compound": "O=C1C=C(Nc2nc(O)cc(C(=O)O)n2)c2ccccc2C1=O", "classification": "inactive"}
{"compound": "CCOC(=O)CN1CC(C2=C(O)CN(CC(=O)OCC)C2=O)=CC1=O", "classification": "inactive"}
{"compound": "Nc1nc2c(ncn2CC2CCC(CO)C2)c(=O)[nH]1 (stereo not given)", "classification": "inactive"}
{"compound": "Clc1ccc(Cl)c(NNc2cc(Cl)ccc2Cl)c1", "classification": "inactive"}
{"compound": "CC(=O)NC1C(OCc2ccccc2)OC(CO)C(O)C1OC(C)C(=O)NC(C(=O)NC(CCC(=O)Nc1ccc2c(c1)CN1C(=O)c3ccccc3C1=N2)C(N)=O)C(C)C (stereo not given)", "classification": "inactive"}

###

Tested on: NCI-H226
protocol.notes: NCI tumour cell line growth inhibition, 48 h
The source made the active and inactive calls. Rule as the data show it: active = GI50 up to about 1.1 µM and inactive = higher.
Outcomes: active, inactive

{"compound": "O=C(NCCN1C(=O)CN=C(c2ccc(Cl)cc2)c2cc(Cl)ccc21)OCc1ccccc1", "classification": "inactive"}
{"compound": "c1ccc2c(NCCCCCCNc3cccc4ccccc34)cccc2c1", "classification": "inactive"}
{"compound": "Cc1cc(C)nc(NS(=O)(=O)c2ccc(NC(=O)c3ccc4nc5ccccc5c(Nc5ccc(S(=O)(=O)N=C(N)N)cc5)c4c3)cc2)n1", "classification": "inactive"}
{"compound": "CN1CN(c2ccccc2)C2(CCN(CCC3COc4ccccc4O3)CC2)C1=O (centres undefined)", "classification": "inactive"}
{"compound": "CSC(SC)=C(C#N)C(=O)Nc1ccc(C)cc1", "classification": "inactive"}
{"compound": "C=C(C)CNCCN", "classification": "inactive"}
{"compound": "C/C1=C\\[C@H](C)C[C@H](C)OC(=O)C[C@H](c2ccc(O)cc2)NC(=O)[C@@H](Cc2c(Br)[nH]c3ccccc23)N(C)C(=O)[C@H](C)NC(=O)[C@@H](C)C1 [JASPAMIDE]", "classification": "active"}
{"compound": "Cc1ccc(-n2nnc(C#N)c2O)cc1", "classification": "inactive"}
{"compound": "COC(=O)[C@H](Cc1ccccc1)NC(=O)N(CCC#N)CCN(C(=O)N[C@@H](Cc1ccccc1)C(=O)OC)c1ccccc1", "classification": "inactive"}

###

Test system: EKVX
protocol.notes: NCI tumour cell line growth inhibition, 48 h
Activity calls are given as the source filed them. Rule as the data show it: active = GI50 up to about 1.1 µM and inactive = higher.
Outcomes: active, inactive

{"molecule": "O=C1/C(=C/c2ccc(Cl)cc2)N=C(c2ccccc2)N1c1nc2ccccc2s1", "target.or.test.system": "EKVX", "classification": "inactive"}
{"molecule": "CCOc1ccc(Nc2nc(C)c(C(=O)/C=C/c3ccc(Cl)cc3Cl)s2)cc1", "target.or.test.system": "EKVX", "classification": "inactive"}
{"molecule": "CC(C)(C)/C(O)=C\\c1nc2cc(C(F)(F)F)ccc2[nH]c1=O", "target.or.test.system": "EKVX", "classification": "inactive"}
{"molecule": "C/C(=N\\N=C(/S)N1CC2CCC(CC2)C1)c1ccncn1", "target.or.test.system": "EKVX", "classification": "active"}
{"molecule": "CCOC(=O)[C@@]1(C)CC(O)C(=O)N1C (stereo not given in full)", "target.or.test.system": "EKVX", "classification": "inactive"}
{"molecule": "Cc1nc2c(O)cc3c4c(=O)n(C)c(=O)n(C)c4n(Cc4ccccc4)c3c2nc1C", "target.or.test.system": "EKVX", "classification": "inactive"}
{"molecule": "COc1c(Cl)c(=O)oc2ccc(Cl)cc12", "target.or.test.system": "EKVX", "classification": "inactive"}
{"molecule": "Oc1ccc(Br)cc1/C=N/c1c(NC2CCCCC2)oc2ccc(Br)cc12", "target.or.test.system": "EKVX", "classification": "inactive"}
{"molecule": "O=NN(CCCl)C(=O)N[C@H]1CC[C@@H](CC(=O)O)CC1", "target.or.test.system": "EKVX", "classification": "inactive"}
{"molecule": "NC1C/C(=N\\O)c2c(I)sc(I)c21 (stereo not given)", "target.or.test.system": "EKVX", "classification": "inactive"}
{"molecule": "COC(=O)c1cc2c(cc1O)[C@@H](NC(C)=O)CCc1cc(OC)c(OC)c(OC)c1-2", "target.or.test.system": "EKVX", "classification": "active"}
{"molecule": "CC1=C(C(=O)Nc2ccccc2)C(c2ccc(C)o2)C(C#N)=C(SCc2ccccc2)N1 (stereo not given)", "target.or.test.system": "EKVX", "classification": "inactive"}
{"molecule": "O=C(Nc1ccccc1-c1nc2ccccc2[nH]c1=O)c1ccccc1", "target.or.test.system": "EKVX", "classification": "inactive"}
{"molecule": "CC(=O)O[C@@H]1[C@H]2[C@@H](OC(=O)c3ccccc3)[C@@H](C)C[C@]2(O)[C@H](OC(C)=O)[C@@]2(C)[C@@H]3CC(C)(C)C(=O)[C@]3(OC(C)=O)C[C@@]12C", "target.or.test.system": "EKVX", "classification": "inactive"}
{"molecule": "CC(=O)Nc1ccc2c3c(cc(O)c2c1)N(C(=O)CCCC(=O)N1CC(CCl)c2c1cc(O)c1cc(NC(C)=O)ccc21)CC3CCl (stereo not given)", "target.or.test.system": "EKVX", "classification": "active"}
